FYI, the data here is from patent US20260207767A1.

# tested on: T1, hPD-1 Avi-Tag Biotin (AcroBiosystems PD1-H82E4) (human, UniProt Q15116 25-167, biotin on Avi-Tag)
# T1 construct: bought; also called human PD-1
# T1 sequence (Q15116 25-167 limits assumed): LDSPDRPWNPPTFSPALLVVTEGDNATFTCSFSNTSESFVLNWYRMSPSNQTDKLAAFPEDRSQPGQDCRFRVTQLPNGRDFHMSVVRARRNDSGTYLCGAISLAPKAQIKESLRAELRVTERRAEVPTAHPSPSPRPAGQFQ
# protocol: SPR, Ab captured, PD-1 analyte
endpoint name: kon (M⁻¹ s⁻¹)
One number for each entry, in M⁻¹ s⁻¹.

**Query** Look up kon of XVT458-z2-m1 (antibody, V domains shown, IgG format; also called z2-XVT458-m1; z2_XVT458m1) VH: QVQLVQSGAEVKKPGASVKVSCKASGYTFTNFYIHWVRQAPGQGLEWMGSIYPNYGFTAYNQKFKDRVTMTVDTSTSTAYMELRSLRSDDTAVYYCARGYSYAMDYWGQGTTVTVSS VL: DIQMTQSPSSVSASVGDRVTITCSASQGIWGDLNWYQQKPGKAPKLLIYHTSQLHSDVPSRFSGSGSGTDFTLTISSLQPEDFATYYCQGYSKDLLTFGGGTKLEIK and report it.
**Result** 222000
